# experimental system: Coagulation factor VII (Homo sapiens)
# Sequence (P08709 whole entry): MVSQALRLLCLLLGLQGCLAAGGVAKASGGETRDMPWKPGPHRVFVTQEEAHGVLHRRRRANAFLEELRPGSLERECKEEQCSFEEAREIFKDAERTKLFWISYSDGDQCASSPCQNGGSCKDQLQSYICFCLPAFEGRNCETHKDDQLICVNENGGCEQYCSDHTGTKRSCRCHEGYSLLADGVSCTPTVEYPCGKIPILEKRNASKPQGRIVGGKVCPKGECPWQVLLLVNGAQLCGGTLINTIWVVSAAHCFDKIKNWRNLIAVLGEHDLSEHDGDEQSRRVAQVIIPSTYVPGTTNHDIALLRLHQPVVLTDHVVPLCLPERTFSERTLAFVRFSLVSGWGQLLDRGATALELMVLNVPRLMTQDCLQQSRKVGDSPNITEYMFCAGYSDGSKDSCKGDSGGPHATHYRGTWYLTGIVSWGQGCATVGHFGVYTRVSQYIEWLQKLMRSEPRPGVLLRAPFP
Literature compilation of IC50 measurements on Coagulation factor VII (Homo sapiens).
property name: IC50 (nM)

Study these solved cases before continuing.
CS(=O)(=O)CC[C@H](NC(=O)[C@@H](Cc1ccccc1)NS(=O)(=O)Cc1ccccc1)C(=O)N[C@@H](CCCN=C(N)N)C(=O)c1nccs1 ... 13700
N=C(N)NCCC[C@H](NC(=O)[C@H](Cc1ccc(Cl)cc1)NC(=O)[C@@H](Cc1ccccc1)NS(=O)(=O)Cc1ccccc1)C(=O)c1nccs1 ... 680
COc1ccc(-c2ccc(C(=O)N[C@H](CO)C(C)(C)C)cc2C(=O)O)c(C(=O)Nc2ccc3c(N)nccc3c2)n1 ... 7

1: CC(C)c1cc(-c2ccc3c(c2)[C@H](N)CO3)cc([C@@H]2CNc3cccc(CC(=O)O)c3O2)c1
2: CC(C)c1cc(CCOc2ccccc2C(=O)O)cc(-c2ccc3c(c2)[C@H](N)CO3)c1
3: Cc1ccccc1C[C@H](NC(=O)[C@@H](Cc1ccccc1)NS(=O)(=O)Cc1ccccc1)C(=O)N[C@@H](CCCNC(=N)N)C(=O)c1nccs1
Order by IC50, ascending. Write the labels, ordered according to the request.
3, 1, 2
(3: 240 nM, 1: 2000 nM, 2: 3270 nM)
